System: GOTO (Neuroblastoma);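 note: after 72 h of two-drug dosing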
Run description: Bliss excess, mean over the matrix (fraction); higher = more synergy
// reported Bliss excess for each item listed
Respond numerically, and do not add a unit to the figure.

# Compound, Bliss excess
data = [
    ("CCN(CCO)CCCOc1ccc2c(Nc3cc(CC(=O)Nc4cccc(F)c4)[nH]n3)ncnc2c1 [AZD2811] + C=CCn1c(=O)c2cnc(Nc3ccc(N4CCN(C)CC4)cc3)nc2n1-c1cccc(C(C)(C)O)n1 [AZD1775] (first compound max 1 µM, partner max 1 µM)", -0.0162),
]

In the following, a different compound is considered.
Request: # query: Bliss excess of entry COc1cccc(OCCCN)c1-c1cc(Nc2cnc(C#N)cn2)n[nH]1 [Prexasertib] + CN(C)CCCOc1ccc(-c2ccc3ncc4c(c3c2)n(C2CCOCC2)c(=O)n4C)cn1 [AZD0156] (first compound max 1 µM, 7x7, partner max 1 µM)
Response: -0.0098

###

System: A704 (Kidney Carcinoma)
Run description: combination Emax (second highest fraction inhibited in the dose matrix, 72 h); higher = more inhibition; extreme values may be limits of the assay
// reported combination Emax for each item listed
Respond numerically, and do not add a unit to the figure.

# Molecule, Assay result
records = [
    ("CC1(C)CCC(CN2CCN(c3ccc(C(=O)NS(=O)(=O)c4ccc(NCC5CCOCC5)c([N+](=O)[O-])c4)c(Oc4cnc5[nH]ccc5c4)c3)CC2)=C(c2ccc(Cl)cc2)C1 [Venetoclax] + Cc1cc2ncnn2cc1Nc1ncc2c(n1)n(C1CCOCC1)c(=O)n2C [AZD7648] (first compound max 1 µM, 7x7, partner max 10 µM)", 0.32),
    ("CC1(C)CCC(CN2CCN(c3ccc(C(=O)NS(=O)(=O)c4ccc(NCC5CCOCC5)c([N+](=O)[O-])c4)c(Oc4cnc5[nH]ccc5c4)c3)CC2)=C(c2ccc(Cl)cc2)C1 [Venetoclax] + C1CN(CCC1(C(=O)N[C@@H](CCO)C2=CC=C(C=C2)Cl)N)C3=NC=NC4=C3C=CN4 [Capivasertib] (first compound max 1 µM, 7x7, partner max 3 µM)", 0.318),
    ("Cc1c2c(nn1C)CSCc1cc(n(C)n1)CSc1cc(c3ccccc3c1)OCCCc1c(C(=O)O)n(C)c3c-2c(Cl)ccc13 [AZD5991] + CN(C)CCCOc1ccc(-c2ccc3ncc4c(c3c2)n(C2CCOCC2)c(=O)n4C)cn1 [AZD0156] (first compound max 1 µM, 7x7, partner max 1 µM)", 0.24),
    ("COc1cc2ncnc(Nc3ccc(F)c(Cl)c3)c2cc1OCCCN1CCOCC1 [Gefitinib] + CC(C)n1c(=O)n(C)c2cnc3cc(F)c(-c4ccc(OCCCN5CCCCC5)nc4)cc3c21 [AZD1390] (first compound max 10 µM, 7x7, partner max 0.3 µM)", 0.439),
    ("COc1nnc2ccc(N3CCC(c4ccc(OCCN5CCN(C)C(=O)[C@H]5C)cc4)CC3)nn12 [AZD5153] + CN(CC[C@H](CSC1=CC=CC=C1)NC2=C(C=C(C=C2)S(=O)(=O)NC(=O)C3=CC=C(C=C3)N4CCC(CC4)[C@H](C5=CC=CC=C5C6=CC=C(C=C6)Cl)O)S(=O)(=O)C(F)(F)F)CCO [AZD4320] (first compound max 1 µM, 7x7, partner max 1 µM)", 0.768),
]

In the following, a different molecule is considered.
Request: # query: combination Emax of entry CC1(C)CCC(CN2CCN(c3ccc(C(=O)NS(=O)(=O)c4ccc(NCC5CCOCC5)c([N+](=O)[O-])c4)c(Oc4cnc5[nH]ccc5c4)c3)CC2)=C(c2ccc(Cl)cc2)C1 [Venetoclax] + CN(C)CCCOc1ccc(-c2ccc3ncc4c(c3c2)n(C2CCOCC2)c(=O)n4C)cn1 [AZD0156] (first compound max 1 µM, 7x7, partner max 1 µM)
Response: 0.185
